Numbers sourced from the supplement of paper PMC11061612.

- Tested on: NCI-H1688 (Small Cell Lung Carcinoma)
- method.summary: combination Emax (second highest fraction inhibited in the dose matrix, 72 h); higher = more inhibition; extreme values may be limits of the assay
Here, each record is paired with measured combination Emax data.
I'd appreciate a reply containing only the number, no unit.

compound="C=CCn1c(=O)c2cnc(Nc3ccc(N4CCN(C)CC4)cc3)nc2n1-c1cccc(C(C)(C)O)n1 [AZD1775] + C1CN(CCC1(C(=O)N[C@@H](CCO)C2=CC=C(C=C2)Cl)N)C3=NC=NC4=C3C=CN4 [Capivasertib] (first compound max 3 µM, partner max 3 µM)" readout_name="combination Emax" assay_value=0.687

Fill blank: measured combination Emax of the compound CC(=O)c1c(C)c2cnc(Nc3ccc(N4CCNCC4)cn3)nc2n(C2CCCC2)c1=O [Palbociclib] + CC1(C)CCC(CN2CCN(c3ccc(C(=O)NS(=O)(=O)c4ccc(NCC5CCOCC5)c([N+](=O)[O-])c4)c(Oc4cnc5[nH]ccc5c4)c3)CC2)=C(c2ccc(Cl)cc2)C1 [Venetoclax] (first compound max 10 µM, 7x7, partner max 1 µM) is ____. 0.0922

Now the compound CN(CCO)CC[C@H](CSc1ccccc1)Nc1ccc(S(=O)(=O)NC(=O)c2ccc(N3CCC([C@@H](O)c4ccccc4-c4ccc(Cl)cc4)CC3)cc2)cc1S(=O)(=O)C(F)(F)F [AZD4320] + C=CCn1c(=O)c2cnc(Nc3ccc(N4CCN(C)CC4)cc3)nc2n1-c1cccc(C(C)(C)O)n1 [AZD1775] (first compound max 1 µM, partner max 1 µM) 0.87

And for CN(C)CCCOc1ccc(-c2ccc3ncc4c(c3c2)n(C2CCOCC2)c(=O)n4C)cn1 [AZD0156] + O=C(c1cc(Cc2n[nH]c(=O)c3ccccc23)ccc1F)N1CCN(C(=O)C2CC2)CC1 [Olaparib] (first compound max 3 µM, partner max 3 µM) ? 0.206

// same read-out, input: COc1nnc2ccc(N3CCC(c4ccc(OCCN5CCN(C)C(=O)[C@H]5C)cc4)CC3)nn12 [AZD5153] + CN(CC[C@H](CSC1=CC=CC=C1)NC2=C(C=C(C=C2)S(=O)(=O)NC(=O)C3=CC=C(C=C3)N4CCC(CC4)[C@H](C5=CC=CC=C5C6=CC=C(C=C6)Cl)O)S(=O)(=O)C(F)(F)F)CCO [AZD4320] (first compound max 1 µM, 7x7, partner max 1 µM) 0.509

Can you check CC1(C)CCC(CN2CCN(c3ccc(C(=O)NS(=O)(=O)c4ccc(NCC5CCOCC5)c([N+](=O)[O-])c4)c(Oc4cnc5[nH]ccc5c4)c3)CC2)=C(c2ccc(Cl)cc2)C1 [Venetoclax] + C1CN(CCC1(C(=O)N[C@@H](CCO)C2=CC=C(C=C2)Cl)N)C3=NC=NC4=C3C=CN4 [Capivasertib] (first compound max 1 µM, 7x7, partner max 3 µM) next? 0.294

For COc1cccc(OCCCN)c1-c1cc(Nc2cnc(C#N)cn2)n[nH]1 [Prexasertib] + O=C(c1cc(Cc2n[nH]c(=O)c3ccccc23)ccc1F)N1CCN(C(=O)C2CC2)CC1 [Olaparib] (first compound max 1 µM, 7x7, partner max 10 µM) then? 0.528

---

- Test system: EW-22 (Ewing's Sarcoma)
- method.summary: combination Emax (second highest fraction inhibited in the dose matrix, 72 h); higher = more inhibition; extreme values may be limits of the assay
readout.name: combination Emax
Field format: numeric only.

See these solved cases before continuing.
compound="CC1(C)CCC(CN2CCN(c3ccc(C(=O)NS(=O)(=O)c4ccc(NCC5CCOCC5)c([N+](=O)[O-])c4)c(Oc4cnc5[nH]ccc5c4)c3)CC2)=C(c2ccc(Cl)cc2)C1 [Venetoclax] + CCN(CCO)CCCOc1ccc2c(Nc3cc(CC(=O)Nc4cccc(F)c4)[nH]n3)ncnc2c1 [AZD2811] (first compound max 1 µM, 7x7, partner max 1 µM)" assay_value=0.924
compound="CCN(CCO)CCCOc1ccc2c(Nc3cc(CC(=O)Nc4cccc(F)c4)[nH]n3)ncnc2c1 [AZD2811] + O=C(c1cc(Cc2n[nH]c(=O)c3ccccc23)ccc1F)N1CCN(C(=O)C2CC2)CC1 [Olaparib] (first compound max 1 µM, 7x7, partner max 10 µM)" assay_value=0.949
compound="Cc1cc2ncnn2cc1Nc1ncc2c(n1)n(C1CCOCC1)c(=O)n2C [AZD7648] + C=CCn1c(=O)c2cnc(Nc3ccc(N4CCN(C)CC4)cc3)nc2n1-c1cccc(C(C)(C)O)n1 [AZD1775] (first compound max 10 µM, partner max 1 µM)" assay_value=0.602
compound="Cn1cnc2c(F)c(Nc3ccc(Br)cc3Cl)c(C(=O)NOCCO)cc21 [Selumetinib] + C[C@@H]1COCCN1C2=NC(=NC(=C2)C3(CC3)[S@](=N)(=O)C)C4=C5C=CNC5=NC=C4 [AZD6738] (first compound max 10 µM, 7x7, partner max 10 µM)" assay_value=0.855
compound="CS(=O)(=O)CCNCc1ccc(-c2ccc3ncnc(Nc4ccc(OCc5cccc(F)c5)c(Cl)c4)c3c2)o1 [Lapatinib] + Cn1cnc2c(F)c(Nc3ccc(Br)cc3Cl)c(C(=O)NOCCO)cc21 [Selumetinib] (first compound max 10 µM, 7x7, partner max 10 µM)" assay_value=0.242

So what's the measured combination Emax for this one? Cc1cc2ncnn2cc1Nc1ncc2c(n1)n(C1CCOCC1)c(=O)n2C [AZD7648] + CN(C)CCCOc1ccc(-c2ccc3ncc4c(c3c2)n(C2CCOCC2)c(=O)n4C)cn1 [AZD0156] (first compound max 10 µM, 7x7, partner max 1 µM) 0.467

Next compound: O=C(c1cc(Cc2n[nH]c(=O)c3ccccc23)ccc1F)N1CCN(C(=O)C2CC2)CC1 [Olaparib] + CN(CC[C@H](CSC1=CC=CC=C1)NC2=C(C=C(C=C2)S(=O)(=O)NC(=O)C3=CC=C(C=C3)N4CCC(CC4)[C@H](C5=CC=CC=C5C6=CC=C(C=C6)Cl)O)S(=O)(=O)C(F)(F)F)CCO [AZD4320] (first compound max 10 µM, 7x7, partner max 1 µM) 0.988

Query COc1cc2c(cc1OCCCCCOc1cc3c(cc1OC)C(=O)N1C=C(C)C[C@H]1C=N3)N=C[C@@H]1CC(C)=CN1C2=O [SG3199] + O=C(c1cc(Cc2n[nH]c(=O)c3ccccc23)ccc1F)N1CCN(C(=O)C2CC2)CC1 [Olaparib] (first compound max 0.001 µM, 7x7, partner max 10 µM) next 0.894

Would you mind doing Cn1cnc2c(F)c(Nc3ccc(Br)cc3Cl)c(C(=O)NOCCO)cc21 [Selumetinib] + CCN(CCO)CCCOc1ccc2c(Nc3cc(CC(=O)Nc4cccc(F)c4)[nH]n3)ncnc2c1 [AZD2811] (first compound max 10 µM, 7x7, partner max 1 µM) as well? 0.695

Also need CC(=O)Nc1cccc(-n2c(=O)n(C3CC3)c(=O)c3c(Nc4ccc(I)cc4F)n(C)c(=O)c(C)c32)c1 [Trametinib] + Cc1nc(-c2cn3c(n2)-c2ccc(-c4cnn(C(C)(C)C(N)=O)c4)cc2OCC3)n(C(C)C)n1 [Taselisib] (first compound max 1 µM, 7x7, partner max 10 µM) , thanks. 0.722
